# measured_target: T1, PTK7 (His tag) (UniProt Q13308 31-704)
# T1 sequence: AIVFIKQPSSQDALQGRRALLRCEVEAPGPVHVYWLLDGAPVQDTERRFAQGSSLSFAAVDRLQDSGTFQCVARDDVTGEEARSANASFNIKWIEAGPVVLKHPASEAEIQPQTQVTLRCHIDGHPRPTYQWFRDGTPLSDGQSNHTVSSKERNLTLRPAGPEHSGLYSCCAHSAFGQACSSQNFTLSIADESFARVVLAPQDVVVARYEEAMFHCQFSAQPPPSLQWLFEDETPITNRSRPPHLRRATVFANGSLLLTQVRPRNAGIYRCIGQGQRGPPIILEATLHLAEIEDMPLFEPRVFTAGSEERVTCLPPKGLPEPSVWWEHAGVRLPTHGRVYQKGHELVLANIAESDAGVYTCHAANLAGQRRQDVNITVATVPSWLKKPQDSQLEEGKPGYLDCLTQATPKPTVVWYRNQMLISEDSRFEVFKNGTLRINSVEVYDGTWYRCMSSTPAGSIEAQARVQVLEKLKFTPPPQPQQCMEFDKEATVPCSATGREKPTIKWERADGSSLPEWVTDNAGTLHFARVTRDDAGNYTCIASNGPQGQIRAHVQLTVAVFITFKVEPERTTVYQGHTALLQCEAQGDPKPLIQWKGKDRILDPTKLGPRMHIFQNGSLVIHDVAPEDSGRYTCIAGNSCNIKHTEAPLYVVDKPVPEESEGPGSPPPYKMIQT
# test_details: SPR

{"binder": "ATCTAACTTCTGAGCCGCCGGGAAAATACTGTACGGTTAGA (structured_DNA) [G9T·C13A]", "binding result": "no binding"}
{"binder": "ATCTAACTGATTCGCCGCCGGGAAAATACTGTACGGTTAGA (structured_DNA) [C10A·G12T]", "binding result": "no binding"}
{"binder": "ATCTAACTCCTGGGCCGCCGGGAAAATACTGTACGGTTAGA (structured_DNA) [G9C·C13G]", "binding result": "no binding"}
